molecular target: T1, recombinant human CD3 epsilon/gamma heterodimer (human, UniProt P07766 23-126; P09693 23-116); assay: BLI (Octet), mAb 5 ug/mL on FAB2G sensor, hCD3 E/G 200-50 nM;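 note: antibodies purified from hybridoma supernatants, measured by Octet binding to recombinant human CD3 protein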
T1 construct: Recombinant heterodimer used as analyte in Octet; also called hCD3 E/G
T1 sequence (P07766 23-126, chain 1 of 2): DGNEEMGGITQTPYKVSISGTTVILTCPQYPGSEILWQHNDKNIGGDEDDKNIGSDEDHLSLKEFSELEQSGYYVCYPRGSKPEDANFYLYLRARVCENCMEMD
T1 sequence (P09693 23-116, chain 2 of 2): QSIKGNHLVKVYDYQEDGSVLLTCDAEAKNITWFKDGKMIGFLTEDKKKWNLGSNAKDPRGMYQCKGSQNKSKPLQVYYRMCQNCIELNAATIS
Listing: koff of selected binders

binder: ABL-CD3-73 (antibody, V domains shown, mAb purified from hybridoma; chimeric AlivaMab IgG (human VH, CH1 and upper hinge; mouse middle hinge, CH2, CH3; human light chain)) VH: EVQLVESGGGLVKPGGSLRLSCAASGFTITSYSMNWVRQAPGKGLEWVSTFSRSSTYIYYADSVKGRFTISRDNAKNSLYLQMNSLRAEDTAVYYCAREKWDLLYFDYWGQGTLVTVSS VL: NFMLTQPHSVSESPGKTVTISCTRSSGSIASNYVQWYQQRPGSSPTTVIYEDNRRPSGVPDRFSGSIDSSSNSASLTISGLKTEDEADYYCQSYDNSNRVFGGGTTLTVL
scale unit: s⁻¹
koff: 0.000472
//
binder: ABL-CD3-79 (antibody, V domains shown, mAb purified from hybridoma; chimeric AlivaMab IgG (human VH, CH1 and upper hinge; mouse middle hinge, CH2, CH3; human light chain)) VH: EVQLVESGGGLVKPGGSLRLSCAASGFTVSNYSMNWVRQAPGKGLEWVSCISRSSSYIYYADSVKGRFTISRDNAKNSLFLQMNSLRAEDTAVYYCARERWELLYFDYWGQGTLVTVSS VL: QTVVTQEPSFSVSPGGTVTLTCGLSSGSVSTSYYPSWYQQTPGQAPRTLIYSTNTRSSGVPDRFSGSILGNKAALTITGAQADDESDYYCVLYMGSGIWVFGGGTKLTVL
scale unit: s⁻¹
koff: 0.162
//
binder: ABL-CD3-83 (antibody, V domains shown, mAb purified from hybridoma; chimeric AlivaMab IgG (human VH, CH1 and upper hinge; mouse middle hinge, CH2, CH3; human light chain)) VH: EVQLVESGGGLVKPGGSLRLSCAASGFTFSSYSMNWVRQAPGKGLEWVSTISRSGGYIYDADSVKGRFTISRDNAKNSLYLQMNSLRAEDTAVYYCARDFNWTFDNWGQGTLVTVSS VL: NFMLTQPHSVSESPGKTVTISCTRSSGSIASNYVQWYQQRPGSSPTTVIYEDNQRPSGVPDRFSGSIDSSSNSASLTISGLKTEDEADYYCQSSDRSNVVFGGGTKLTVL
scale unit: s⁻¹
koff: 0.00649
